system: non-replicating cultures of M. tuberculosis H37Rv transformed with lux ABCDE; experiment: microbe, parasite or virus in culture; format: cell-based, Mycobacterium tuberculosis; settings: ratio of LORA MIC90 to MABA MIC90
As shown below, each of these molecules has a reported MIC90 LORA/MABA value.
measurementType: MIC90 LORA/MABA

molecule	resultValue
CO[C@H]1/C=C/O[C@@]2(C)Oc3c(C)c(O)c4c(=O)c(c5oc6cc(C)cc(N7CCN(C(=O)c8ccc9occc9c8)CC7)c6nc-5c4c3C2=O)NC(=O)/C(C)=C\C=C\[C@H](C)[C@H](O)[C@@H](C)[C@@H](O)[C@@H](C)[C@H](OC(C)=O)[C@@H]1C [Compound 30h]	2.2
CO[C@H]1/C=C/O[C@@]2(C)Oc3c(C)c(O)c4c(=O)c(c5oc6cc(N7CCN(C)CC7)cc(OCCCCN7CCN(C(=O)Cn8ccnc8)CC7)c6nc-5c4c3C2=O)NC(=O)/C(C)=C\C=C\[C@H](C)[C@H](O)[C@@H](C)[C@@H](O)[C@@H](C)[C@H](OC(C)=O)[C@@H]1C	0.5

---

Entries and their measured MIC90 LORA/MABA follow.
test system: non-replicating cultures of M. tuberculosis H37Rv transformed with lux ABCDE; experiment: microbe, parasite or virus in culture; assay type: cell-based, Mycobacterium tuberculosis; conditions: ratio of LORA MIC90 to MABA MIC90
measurementType: MIC90 LORA/MABA

molecule	resultValue
COC(=O)N1CCN(c2cc(C)c3nc4c5c6c7c(C)c(O)c5c(=O)c(c-4oc3c2)NC(=O)/C(C)=C\C=C\[C@H](C)[C@H](O)[C@@H](C)[C@@H](O)[C@@H](C)[C@H](OC(C)=O)[C@H](C)[C@@H](OC)/C=C/O[C@@](C)(O7)C6=O)CC1 [Compound 26g]	1.9
CO[C@H]1/C=C/O[C@@]2(C)Oc3c(C)c(O)c4c(=O)c(c5oc6cc(C=Nc7ccc(N8CCOCC8)cc7)cc(N7CCN(C)CC7)c6nc-5c4c3C2=O)NC(=O)/C(C)=C\C=C\[C@H](C)[C@H](O)[C@@H](C)[C@@H](O)[C@@H](C)[C@H](OC(C)=O)[C@@H]1C	2.5
CO[C@H]1/C=C/O[C@@]2(C)Oc3c(C)c(O)c4c(=O)c(c5oc6cc(N7CCN(CC(C)C)CC7)cc(OCc7ccc(CN8CCN(C)CC8)cc7)c6nc-5c4c3C2=O)NC(=O)/C(C)=C\C=C\[C@H](C)[C@H](O)[C@@H](C)[C@@H](O)[C@@H](C)[C@H](OC(C)=O)[C@@H]1C [Compound 17p]	3.7
CO[C@H]1/C=C/O[C@@]2(C)Oc3c(C)c(O)c4c(=O)c(c5oc6cc(N7CCN(CC(C)C)CC7)cc(OCCCCN7CCN(C(=O)Cn8ccnc8)CC7)c6nc-5c4c3C2=O)NC(=O)/C(C)=C\C=C\[C@H](C)[C@H](O)[C@@H](C)[C@@H](O)[C@@H](C)[C@H](OC(C)=O)[C@@H]1C	2.4

---

test system: non-replicating cultures of M. tuberculosis H37Rv transformed with lux ABCDE; assay: microbe, parasite or virus in culture; format: cell-based, Mycobacterium tuberculosis; conditions: ratio of LORA MIC90 to MABA MIC90
measurementType: MIC90 LORA/MABA

molecule	measurementType	resultValue
CO[C@H]1/C=C/O[C@@]2(C)Oc3c(C)c(O)c4c(=O)c(c5oc6cccc(OCc7cccc(CN8CCN(C(C)=O)CC8)c7)c6nc-5c4c3C2=O)NC(=O)/C(C)=C\C=C\[C@H](C)[C@H](O)[C@@H](C)[C@@H](O)[C@@H](C)[C@H](OC(C)=O)[C@@H]1C [Compound 11c]	MIC90 LORA/MABA	2.1
CO[C@H]1/C=C/O[C@@]2(C)Oc3c(C)c(O)c4c(=O)c(c5oc6cccc(OCc7ccc(CN8CCN(C)CC8)cc7)c6nc-5c4c3C2=O)NC(=O)/C(C)=C\C=C\[C@H](C)[C@H](O)[C@@H](C)[C@@H](O)[C@@H](C)[C@H](OC(C)=O)[C@@H]1C [Compound 16e]	MIC90 LORA/MABA	5.6
CO[C@H]1/C=C/O[C@@]2(C)Oc3c(C)c(O)c4c(=O)c(c5oc6cc(N7CCN(C(=O)c8ccc9occc9c8)CC7)cc(OCc7ccc(CN8CCOCC8)cc7)c6nc-5c4c3C2=O)NC(=O)/C(C)=C\C=C\[C@H](C)[C@H](O)[C@@H](C)[C@@H](O)[C@@H](C)[C@H](OC(C)=O)[C@@H]1C [Compound 17s]	MIC90 LORA/MABA	1.7
CO[C@H]1/C=C/O[C@@]2(C)Oc3c(C)c(O)c4c(=O)c(c5oc6cc(C)cc(N7CCN(C(=O)c8cccc(-c9ccccn9)c8)CC7)c6nc-5c4c3C2=O)NC(=O)/C(C)=C\C=C\[C@H](C)[C@H](O)[C@@H](C)[C@@H](O)[C@@H](C)[C@H](OC(C)=O)[C@@H]1C [Compound 30g]	MIC90 LORA/MABA	1.2
CO[C@H]1/C=C/O[C@@]2(C)Oc3c(C)c(O)c4c(=O)c(c5oc6cc(N7CCN(C(=O)c8cccc(-n9ccnc9)c8)CC7)cc(C)c6nc-5c4c3C2=O)NC(=O)/C(C)=C\C=C\[C@H](C)[C@H](O)[C@@H](C)[C@@H](O)[C@@H](C)[C@H](OC(C)=O)[C@@H]1C [Compound 29a]	MIC90 LORA/MABA	3.5
CO[C@H]1/C=C/O[C@@]2(C)Oc3c(C)c(O)c4c(=O)c(c5oc6cc(N7CCN(C(=O)OC(C)(C)C)CC7)cc(C)c6nc-5c4c3C2=O)NC(=O)/C(C)=C\C=C\[C@H](C)[C@H](O)[C@@H](C)[C@@H](O)[C@@H](C)[C@H](OC(C)=O)[C@@H]1C [Compound 26i]	MIC90 LORA/MABA	2.0
CO[C@H]1/C=C/O[C@@]2(C)Oc3c(C)c(O)c4c(=O)c(c5oc6cc(N7CCN(C(=O)C(C)(C)C)CC7)cc(C)c6nc-5c4c3C2=O)NC(=O)/C(C)=C\C=C\[C@H](C)[C@H](O)[C@@H](C)[C@@H](O)[C@@H](C)[C@H](OC(C)=O)[C@@H]1C [Compound 26f]	MIC90 LORA/MABA	2.1
CO[C@H]1/C=C/O[C@@]2(C)Oc3c(C)c(O)c4c(=O)c(c5oc6cc(N7CCN(CC(C)C)CC7)cc(O)c6nc-5c4c3C2=O)NC(=O)/C(C)=C\C=C\[C@H](C)[C@H](O)[C@@H](C)[C@@H](O)[C@@H](C)[C@H](OC(C)=O)[C@@H]1C [RLZ, rifalazil, reference compound]	MIC90 LORA/MABA	2.0
CO[C@H]1/C=C/O[C@@]2(C)Oc3c(C)c(O)c4c(=O)c(c5oc6cc(N7CCN(CC(C)C)CC7)cc(OCCCCN7CCN(CCn8ccnc8)CC7)c6nc-5c4c3C2=O)NC(=O)/C(C)=C\C=C\[C@H](C)[C@H](O)[C@@H](C)[C@@H](O)[C@@H](C)[C@H](OC(C)=O)[C@@H]1C	MIC90 LORA/MABA	2.4
CO[C@H]1/C=C/O[C@@]2(C)Oc3c(C)c(O)c4c(=O)c(c5oc6cc(N7CCN(C8CCN(C)CC8)CC7)cc(OCc7ccc(CN8CCOCC8)cc7)c6nc-5c4c3C2=O)NC(=O)/C(C)=C\C=C\[C@H](C)[C@H](O)[C@@H](C)[C@@H](O)[C@@H](C)[C@H](OC(C)=O)[C@@H]1C [Compound 17h]	MIC90 LORA/MABA	9.0
CO[C@H]1/C=C/O[C@@]2(C)Oc3c(C)c(O)c4c(=O)c(c5oc6cc(N7CCN(CC(=O)O)CC7)cc(C)c6nc-5c4c3C2=O)NC(=O)/C(C)=C\C=C\[C@H](C)[C@H](O)[C@@H](C)[C@@H](O)[C@@H](C)[C@H](OC(C)=O)[C@@H]1C [Compound 29h]	MIC90 LORA/MABA	7.2
CO[C@H]1/C=C/O[C@@]2(C)Oc3c(C)c(O)c4c(=O)c(c5oc6cc(N7CCN(CC(C)C)CC7)cc(OCCCCN7CCOCC7)c6nc-5c4c3C2=O)NC(=O)/C(C)=C\C=C\[C@H](C)[C@H](O)[C@@H](C)[C@@H](O)[C@@H](C)[C@H](OC(C)=O)[C@@H]1C	MIC90 LORA/MABA	2.0
CO[C@H]1/C=C/O[C@@]2(C)Oc3c(C)c(O)c4c(=O)c(c5oc6cc(N7CCCC(C(=O)Nc8ccc(Cl)cc8)C7)cc(C)c6nc-5c4c3C2=O)NC(=O)/C(C)=C\C=C\[C@H](C)[C@H](O)[C@@H](C)[C@@H](O)[C@@H](C)[C@H](OC(C)=O)[C@@H]1C (some centres unmarked)	MIC90 LORA/MABA	2.1
CO[C@H]1/C=C/O[C@@]2(C)Oc3c(C)c(O)c4c(=O)c(c5oc6cccc(OCCCCN7CCN(C(=O)OC(C)(C)C)CC7)c6nc-5c4c3C2=O)NC(=O)/C(C)=C\C=C\[C@H](C)[C@H](O)[C@@H](C)[C@@H](O)[C@@H](C)[C@H](OC(C)=O)[C@@H]1C	MIC90 LORA/MABA	2.4

Origin of values: patent US20250188092A1
